readoutName: AC50

[Q] Enter recorded AC50 with Cytochrome P450 2C9 (Homo sapiens, UniProt P11712) for COc1ccc2oc(-c3ccc(C)c(NC(=O)c4ccc(N5CCOCC5)c([N+](=O)[O-])c4)c3)nc2c1 here.
Sequence (P11712 whole entry): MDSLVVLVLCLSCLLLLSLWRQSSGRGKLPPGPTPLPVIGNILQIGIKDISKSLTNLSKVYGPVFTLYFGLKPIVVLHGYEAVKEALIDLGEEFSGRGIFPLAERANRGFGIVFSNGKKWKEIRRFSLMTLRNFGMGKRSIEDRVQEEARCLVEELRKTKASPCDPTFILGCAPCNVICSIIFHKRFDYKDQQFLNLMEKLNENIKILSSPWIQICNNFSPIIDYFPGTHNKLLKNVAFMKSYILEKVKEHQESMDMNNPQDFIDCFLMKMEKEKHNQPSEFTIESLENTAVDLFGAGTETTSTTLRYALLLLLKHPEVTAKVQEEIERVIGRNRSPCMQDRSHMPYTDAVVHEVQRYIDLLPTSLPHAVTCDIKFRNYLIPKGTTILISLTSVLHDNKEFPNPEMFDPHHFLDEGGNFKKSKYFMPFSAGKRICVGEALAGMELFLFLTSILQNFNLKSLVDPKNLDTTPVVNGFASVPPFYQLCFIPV
[A] 3.16 µM (inconclusive)

[Q] Enter recorded AC50 with Cytochrome P450 2C9 (Homo sapiens, UniProt P11712) for Cc1cc(C2C(C#N)=C(N)Oc3[nH]nc(C)c32)c(C)s1 (stereo not drawn) here.
[A] 10 µM (inconclusive)

[Q] Enter recorded AC50 with Cytochrome P450 2C9 (Homo sapiens, UniProt P11712) for O=S1(=O)[C@@H](c2ccccc2)[C@H](N2CCCCC2)[C@H]1[C@H]1C[C@H]2c3ccccc3[C@@H]1c1ccccc12 here.
[A] 7.94 µM (inconclusive)

* * *

Molecular target: Induced myeloid leukemia cell differentiation protein Mcl-1 (Homo sapiens, UniProt Q07820)
Sequence (Q07820 whole entry): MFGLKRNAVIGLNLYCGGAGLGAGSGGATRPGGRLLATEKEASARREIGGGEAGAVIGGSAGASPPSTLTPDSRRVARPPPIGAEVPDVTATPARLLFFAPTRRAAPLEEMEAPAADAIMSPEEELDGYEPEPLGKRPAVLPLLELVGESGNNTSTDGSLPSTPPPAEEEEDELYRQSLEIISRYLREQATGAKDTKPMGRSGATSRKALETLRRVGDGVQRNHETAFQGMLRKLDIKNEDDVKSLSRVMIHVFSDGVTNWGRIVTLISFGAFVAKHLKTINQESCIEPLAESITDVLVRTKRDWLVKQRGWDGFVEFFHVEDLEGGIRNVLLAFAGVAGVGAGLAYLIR
Type: functional
The source made the active and inactive calls.
I'd appreciate it if you could supply IC50 values for the items below.

[Q] Return reported IC50. Input molecule: Cc1ccc(-n2cccc2/C=C2/C(=N)N3C(=NC2=O)SN=C3S(C)(=O)=O)cc1Cl
[A] 1.86 µM (active)

[Q] Return reported IC50. Input molecule: O=c1c(-c2c(O)cc(O)c3c(=O)cc(-c4ccc(O)cc4)oc23)c(-c2ccc(O)cc2)oc2cc(O)cc(O)c12
[A] 2.73 µM (not active)

[Q] Return reported IC50. Input molecule: COc1ccc(/C=C2/C(=O)NC(=S)N(C3CC3)C2=O)cc1CN1C(=O)c2ccccc2C1=O
[A] 5.54 µM (active)

[Q] Return reported IC50. Input molecule: Cc1ccc(S(=O)(=O)/N=C2/C=C(Sc3nc[nH]n3)C(=O)c3ccccc32)cc1
[A] 19.7 µM (active)

[Q] Return reported IC50. Input molecule: COc1cc(C(=O)Nc2ccc(N(C)C)cc2)cc(OC)c1OC
[A] 4.78 µM (not active)

[Q] Return reported IC50. Input molecule: O=[N+]([O-])c1cc(CN2CCOCC2)c2cccnc2c1O
[A] 2.93 µM (active)

* * *

Molecular target: Heat shock factor protein 1 (Mus musculus)
Sequence (P38532 whole entry): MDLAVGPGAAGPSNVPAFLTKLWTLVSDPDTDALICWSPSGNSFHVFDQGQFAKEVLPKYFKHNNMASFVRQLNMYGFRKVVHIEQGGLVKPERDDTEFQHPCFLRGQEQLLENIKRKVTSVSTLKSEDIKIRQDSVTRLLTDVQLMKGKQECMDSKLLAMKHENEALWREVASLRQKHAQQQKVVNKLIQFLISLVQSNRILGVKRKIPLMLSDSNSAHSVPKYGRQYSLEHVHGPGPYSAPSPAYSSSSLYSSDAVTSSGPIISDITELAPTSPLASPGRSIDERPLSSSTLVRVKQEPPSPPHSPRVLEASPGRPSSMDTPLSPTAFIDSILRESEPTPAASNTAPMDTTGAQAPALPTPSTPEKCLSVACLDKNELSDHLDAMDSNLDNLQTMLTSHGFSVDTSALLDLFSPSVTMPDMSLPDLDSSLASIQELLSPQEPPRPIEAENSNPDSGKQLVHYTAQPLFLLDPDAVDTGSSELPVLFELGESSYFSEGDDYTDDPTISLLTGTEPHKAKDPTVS
Assay: enhancement of HSF1-driven luciferase signal – cell-based, NIH3T3, luminescence, dose retest, confirmation (AID 435004);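 note: stress induced by proteasome inhibitor MG132 added 30 min after compound; luciferase reporter driven by HSF1 response element in NIH3T3 cells; actives raise luminescence as potentiators of the MG132 stress response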
Assay type: functional
The source made the active and inactive calls.
Lab note: assign the record to one of active, inactive

[Q] Returns: the outcome recorded for CCCn1nc([N+](=O)[O-])c(C(C#N)c2nc3ccccc3o2)c(Cl)c1=O (stereo unspecified) in this assay.
[A] inactive

[Q] Returns: the outcome recorded for O=C(CN(CC1CCCO1)S(=O)(=O)c1ccc(S(=O)(=O)NC2CC2)cc1)Nc1ccccc1 (stereo unspecified) in this assay.
[A] inactive

[Q] Returns: the outcome recorded for O=c1c2sccc2nc(SCc2ccc([N+](=O)[O-])cc2)n1Cc1ccccn1 in this assay.
[A] active

[Q] Returns: the outcome recorded for CC(=O)Nc1ccc(C2=NN(Cc3nnc(-c4ccccc4)o3)C(=O)SC2)cc1 in this assay.
[A] inactive

[Q] Returns: the outcome recorded for O=C(O)CSc1cc(NS(=O)(=O)c2ccc(Br)cc2)c2ccccc2c1O in this assay.
[A] inactive

[Q] Returns: the outcome recorded for CCOC(=O)c1cnc2ccc(OC)cc2c1Nc1ccc(N2CCN(C)CC2)cc1 in this assay.
[A] inactive

[Q] Returns: the outcome recorded for COC(=O)c1cnc(N2CCCN(S(=O)(=O)c3ccc(C(F)(F)F)cc3)CC2)nc1C(F)(F)F in this assay.
[A] inactive

[Q] Returns: the outcome recorded for CN(C)c1ccc(C(C[N+](=O)[O-])c2c(N)n(C)c(=O)n(C)c2=O)c(F)c1C#N (stereo unspecified) in this assay.
[A] inactive

[Q] Returns: the outcome recorded for Cc1ccc(CCNC(=O)C2CCN(S(=O)(=O)c3ccc4c(c3)NC(=O)CO4)CC2)cc1 in this assay.
[A] inactive

[Q] Returns: the outcome recorded for O=C(CSc1nnc(-c2ccncc2)n1Cc1ccco1)N1c2ccccc2Sc2ccc(Cl)cc21 in this assay.
[A] active

[Q] Returns: the outcome recorded for COc1cccc(CNc2nc3ccccc3n2C(C)C)c1O in this assay.
[A] inactive

[Q] Returns: the outcome recorded for Cc1cc(NCCN2CCOCC2)n2nc(C)c(-c3ccc(Cl)cc3)c2n1 in this assay.
[A] inactive

[Q] Returns: the outcome recorded for Cc1ccc(S(=O)(=O)N(C)c2ccc(C)c([N+](=O)[O-])c2)cc1 in this assay.
[A] inactive

[Q] Returns: the outcome recorded for Cc1ccc(C)c(Cn2nnc3c(=O)[nH]c(C4CCN(C(=O)c5cccs5)CC4)nc32)c1 in this assay.
[A] inactive

[Q] Returns: the outcome recorded for Cc1cc2c(cc1C)C(c1cccc([N+](=O)[O-])c1)CC(=O)N2 (stereo unspecified) in this assay.
[A] inactive

[Q] Returns: the outcome recorded for CCOC(=O)c1nnsc1Nc1ccc(C)c(C)c1 in this assay.
[A] active
